tested on: UM-SCC47 cells
pIC50: −log10 of the molar value. Ends that are not written are not given here.
REPORTED METRIC: pIC50

Inquiry: Need pIC50, item LPAGEKPEEGEPVLHVEAEPGFTARDKE [active mSSTNIGF1R]
Reply text: 5.00 to 6.00

This collection of values is drawn from paper PMC10035507.
